- Assayed target: Stearoyl-CoA desaturase 5 (Homo sapiens, UniProt Q86SK9)
- Sequence (Q86SK9 whole entry): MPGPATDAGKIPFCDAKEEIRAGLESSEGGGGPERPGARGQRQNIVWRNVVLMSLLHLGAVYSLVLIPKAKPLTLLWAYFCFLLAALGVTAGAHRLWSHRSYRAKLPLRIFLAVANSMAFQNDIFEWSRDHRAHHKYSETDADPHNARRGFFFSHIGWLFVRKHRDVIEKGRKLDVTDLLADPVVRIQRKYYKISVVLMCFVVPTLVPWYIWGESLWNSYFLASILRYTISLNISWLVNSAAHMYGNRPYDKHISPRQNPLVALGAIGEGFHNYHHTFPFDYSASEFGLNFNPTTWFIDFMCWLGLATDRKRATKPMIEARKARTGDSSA
Readout kind: IC50

- CC(C)(C)OC(=O)N1CCC2(CCN(C(=O)c3cc(-c4ccccc4)on3)C2)C1 (configuration not stated): 29.4 µM

In: Entry O=C(c1cc(-c2ccc3c(c2)CCO3)on1)N1CCCC1c1ccncn1 (configuration not stated) has what IC50?
Out: > 45 µM

The reported measurements were obtained from BindingDB's records for patent US10919885.
